The entries below are paired with their reported GI50.
- Test system: BT-549
- assay details: NCI tumour cell line growth inhibition, 48 h
The source made the active and inactive calls. Rule as the data show it: active = GI50 up to about 1.1 µM and inactive = higher.

Problem: GI50 for "COC(=O)[C@H]1CO[C@@H](C(C)(C)C)N1C(=O)N1C=CC(=O)C[C@@H]1C" ?
Solution: > 100 µM (inactive)

Problem: GI50 for CCOC(=O)N1N=C(/C(C)=N/OC)C(C)[S+]1[O-] (centres undefined) ?
Solution: > 100 µM (inactive)

Problem: GI50 for Cn1cc(NC(=O)c2cc(NC(=O)CNC(=N)N)cn2C)cc1C(=O)NCCC(=N)N [NETROPSIN CHLORIDE] ?
Solution: > 100 µM (inactive)

Problem: GI50 for "CCN(CC)CCNc1n[n+]([O-])c2cc([N+](=O)[O-])ccc2[n+]1[O-]" ?
Solution: 2.37 µM (inactive)

----------
- Tested on: K562
- assay details: NCI tumour cell line growth inhibition, 48 h
Activity calls are given as the source filed them. Cut-off read from the data, not from the text of the source: active = GI50 up to about 1.1 µM and inactive = higher.
I would appreciate it if you answered using one of these outcomes: active, inactive

{"compound": "CC(Sc1ccccc1)C(CO)(CO)[N+](=O)[O-] (configuration not stated)", "discrete label": "inactive"}
{"compound": "C(=C\\c1ccc2ccccc2c1Nc1ccccc1)/c1ccccc1", "discrete label": "inactive"}
{"compound": "CC1C(=O)C(C)C(c2ccco2)N(N=O)C1c1ccco1 (configuration not stated)", "discrete label": "inactive"}
{"compound": "CCOC(=O)C(=O)Nc1ccc(C)c(C)c1", "discrete label": "inactive"}

Problem: Given "N=c1nc(N)c2cc3c(N)nc(=N)c3cc12" , state the outcome it received in this test.
Solution: inactive

Problem: Given "COC(=O)c1ccc(NC(=O)c2cc3c(cc2Br)OCO3)o1" , state the outcome it received in this test.
Solution: inactive

Problem: Given O=C1C=CC(=O)C2C1Cc1ccccc1C2c1ccccc1 (configuration not stated) , state the outcome it received in this test.
Solution: inactive

Problem: Given CSc1nc2c(c(O)c(C)c(=O)n2C2OC(COC(C)=O)C(OC(C)=O)C(OC(C)=O)C2OC(C)=O)c(=O)n1C (configuration not stated) , state the outcome it received in this test.
Solution: inactive

----------
- Test system: SNB-19
- assay details: NCI tumour cell line growth inhibition, 48 h
The source made the active and inactive calls. Rule as the data show it: active = GI50 up to about 1.1 µM and inactive = higher.
The entries below are paired with their reported GI50.

{"compound": "CCOC(=O)/C(C(=O)Nc1cccc(Cl)c1)=C(/N)N1CCOCC1", "recorded endpoint": "GI50", "value measured": "> 100 µM (inactive)"}
{"compound": "COc1cc(C23OCC(Cc4cc5c(cc42)OCO5)C3CO)cc(OC)c1OC (stereo not given)", "recorded endpoint": "GI50", "value measured": "3.14 µM (inactive)"}
{"compound": "CC(=O)Nc1ccc2c(c1)C(=O)c1ccccc1-2", "recorded endpoint": "GI50", "value measured": "> 100 µM (inactive)"}
{"compound": "Cc1ccc(/N=N/C(=N\\c2ccc(F)cc2)c2ccc(N(CCC#N)CCC#N)cc2)cc1", "recorded endpoint": "GI50", "value measured": "> 100 µM (inactive)"}
{"compound": "O=c1oc2ccc3ccccc3c2cc1-c1cn2c(n1)sc1ccccc12", "recorded endpoint": "GI50", "value measured": "> 100 µM (inactive)"}

Problem: GI50 for "Cc1occc1C(=S)Nc1ccc(Cl)c(/C=N/OC(C)(C)C)c1" ?
Solution: 18.7 µM (inactive)

Problem: GI50 for "COc1cc(/C=C2\N=C(c3ccccc3)N(c3nc4cc(C)c(C)cc4s3)C2=O)ccc1O" ?
Solution: 74 µM (inactive)

Problem: GI50 for "Cn1cnc2c(NCc3ccccc3)nc(NCCO)nc21" ?
Solution: 48.6 µM (inactive)

Problem: GI50 for CC1(C=O)C(=O)CCC2(C)C3CC(=O)OC3CCC12 (stereo not given) ?
Solution: > 100 µM (inactive)

Problem: GI50 for COc1cc2cc(C(=O)N3CC(COS(C)(=O)=O)c4c3cc([N+](=O)[O-])c3ccccc43)[nH]c2c(OC)c1OC (stereo not given) ?
Solution: > 31.6 µM (inactive)
